tested.target: UniProtKB Q12866
Sequence (Q12866 21-999): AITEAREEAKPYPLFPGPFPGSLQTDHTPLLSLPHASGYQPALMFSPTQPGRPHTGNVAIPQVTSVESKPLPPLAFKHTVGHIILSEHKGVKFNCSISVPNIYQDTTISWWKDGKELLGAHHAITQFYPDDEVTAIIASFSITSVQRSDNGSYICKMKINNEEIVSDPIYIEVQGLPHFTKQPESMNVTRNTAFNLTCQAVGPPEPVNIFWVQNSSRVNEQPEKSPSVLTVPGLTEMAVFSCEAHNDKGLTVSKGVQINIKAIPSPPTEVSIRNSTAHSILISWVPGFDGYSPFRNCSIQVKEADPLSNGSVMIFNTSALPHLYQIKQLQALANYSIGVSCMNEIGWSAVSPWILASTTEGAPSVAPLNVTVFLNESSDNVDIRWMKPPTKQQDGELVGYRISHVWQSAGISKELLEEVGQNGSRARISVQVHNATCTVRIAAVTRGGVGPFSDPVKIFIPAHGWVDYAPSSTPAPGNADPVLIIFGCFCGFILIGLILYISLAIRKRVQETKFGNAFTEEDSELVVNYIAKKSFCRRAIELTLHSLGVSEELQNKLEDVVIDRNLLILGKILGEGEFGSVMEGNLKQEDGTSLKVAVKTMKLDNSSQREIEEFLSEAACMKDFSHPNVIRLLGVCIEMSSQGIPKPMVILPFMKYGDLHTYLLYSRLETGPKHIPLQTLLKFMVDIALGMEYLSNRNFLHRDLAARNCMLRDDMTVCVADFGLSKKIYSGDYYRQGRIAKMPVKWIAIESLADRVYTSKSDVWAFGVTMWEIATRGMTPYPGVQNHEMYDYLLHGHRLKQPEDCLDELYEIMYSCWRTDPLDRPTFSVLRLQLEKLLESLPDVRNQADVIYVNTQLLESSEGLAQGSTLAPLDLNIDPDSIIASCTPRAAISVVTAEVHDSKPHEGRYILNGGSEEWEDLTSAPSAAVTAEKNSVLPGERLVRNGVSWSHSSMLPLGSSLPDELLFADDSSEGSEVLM
pIC50: −log10 of the molar value.
Quick reference for pIC50 among some compounds

Examples with their reported pIC50 follow.
compound: CNS(=O)(=O)c1cncc(-c2cc([C@H]3CC[C@H](O)CC3)n3nc(N[C@@H](C)COC(F)F)ncc23)c1 [Compound 275]
observed.measurement: ≥ 7.00
//
compound: COCC(C)Nc1ncc2c(-c3ccc4[nH]cnc4c3)cc(C3CCC(O)CC3)n2n1 (stereo not shown) [Compound 553]
observed.measurement: ≥ 7.00
//
compound: COC[C@H](C)Nc1ncc2c(-c3cnn(CC(=O)N[C@H]4CCOC4)c3)cc([C@H]3CC[C@H](O)CC3)n2n1 [Compound 237]
observed.measurement: ≥ 7.00

Kindly consider the entry below.
Which pIC50 reading was recorded for the compound COC[C@H](C)Nc1ncc2c(-c3cnn(C4COC4)c3)cc(C3CCC(=O)CC3)n2n1 [Compound 406] ?
≥ 7.00

---

Quick reference for pIC50 among some compounds
tested.target: UniProtKB P36888
Sequence (P36888 27-993): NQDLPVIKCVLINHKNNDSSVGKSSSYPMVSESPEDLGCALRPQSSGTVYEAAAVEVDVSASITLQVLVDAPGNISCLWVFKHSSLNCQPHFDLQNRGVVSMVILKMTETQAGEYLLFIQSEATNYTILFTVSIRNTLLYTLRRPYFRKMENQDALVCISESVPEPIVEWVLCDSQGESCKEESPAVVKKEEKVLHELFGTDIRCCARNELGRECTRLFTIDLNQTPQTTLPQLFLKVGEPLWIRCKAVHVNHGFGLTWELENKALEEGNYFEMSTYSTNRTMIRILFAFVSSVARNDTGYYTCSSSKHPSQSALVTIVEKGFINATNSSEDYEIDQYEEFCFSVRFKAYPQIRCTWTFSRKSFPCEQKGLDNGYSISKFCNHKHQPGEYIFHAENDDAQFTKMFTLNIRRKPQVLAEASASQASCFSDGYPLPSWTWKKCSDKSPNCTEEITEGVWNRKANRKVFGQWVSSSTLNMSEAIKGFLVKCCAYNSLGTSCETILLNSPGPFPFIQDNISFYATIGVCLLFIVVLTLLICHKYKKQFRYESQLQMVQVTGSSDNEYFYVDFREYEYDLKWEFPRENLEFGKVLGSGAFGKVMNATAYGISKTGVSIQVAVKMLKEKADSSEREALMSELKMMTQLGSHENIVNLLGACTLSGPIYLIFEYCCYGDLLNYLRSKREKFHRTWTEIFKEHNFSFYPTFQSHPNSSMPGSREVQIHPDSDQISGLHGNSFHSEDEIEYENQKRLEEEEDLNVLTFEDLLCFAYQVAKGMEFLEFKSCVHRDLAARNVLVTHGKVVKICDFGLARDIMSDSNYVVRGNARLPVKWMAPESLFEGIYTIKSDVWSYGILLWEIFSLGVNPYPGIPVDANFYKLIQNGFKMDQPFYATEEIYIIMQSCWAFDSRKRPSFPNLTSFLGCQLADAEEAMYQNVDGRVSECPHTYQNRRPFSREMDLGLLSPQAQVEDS
pIC50: −log10 of the molar value.

Examples with their reported pIC50 follow.
compound: COC[C@H](C)Nc1ncc2c(-c3ccnc(Oc4cccnc4)c3)cc([C@H]3CC[C@H](O)CC3)n2n1
pIC50: 6.00 to 7.00
//
compound: COC[C@H](C)Nc1ncc2c(-c3cnn(Cc4ccnnc4)c3)cc([C@H]3CC[C@H](O)CC3)n2n1
pIC50: ≥ 7.00
//
compound: COC[C@H](C)Nc1ncc2c(-c3ccc(C)nc3)cc([C@H]3CC[C@H](O)CC3)n2n1
pIC50: 6.00 to 7.00

Kindly consider the entry below.
Which pIC50 reading was recorded for the compound CC(CCOC(F)F)Nc1ncc2c(-c3ccc(CN4CCOCC4)cc3)cc(C3CCC(O)CC3)n2n1 (stereo not shown) ?
≥ 7.00
